System: J774
Experiment: Cytotoxicity against mouse J774 cells assessed as reduction in cell viability at 32 uM incubated for 2 hrs by MTS assay
Assay type: cell-based
Conditions: j774, 2 h
experimental readout: Activity

As a guide, the following entries are already answered.
[C-]#[N+]c1ccccc1/C=C/c1cccc(OC)c1    Non-toxic
[C-]#[N+]c1ccccc1-c1ccc2ccccc2c1    Non-toxic
[C-]#[N+]c1ccccc1/C=C/c1ccc(OC)cc1    Non-toxic
[C-]#[N+]c1ccccc1/C=C/c1ccccc1C(F)(F)F    Non-toxic
[C-]#[N+]c1ccccc1/C=C/c1ccccc1F    Non-toxic
CC/C(=C\c1ccccc1)c1ccccc1    Non-toxic

Task: Reported Activity, compound `[C-]#[N+]c1ccccc1/C=C/c1ccc([N+](=O)[O-])cc1` : ____
Output: Toxic

Task: Queued: `[C-]#[N+]c1ccccc1/C=C(\CC)c1ccc(OC)cc1`
Output: Non-toxic

Task: Queued: `[C-]#[N+]c1ccccc1/C=C/c1ccccn1`
Output: Non-toxic

Task: Queued: `[C-]#[N+]c1ccccc1/C=C/c1cccc(F)c1`
Output: Non-toxic

Task: Queued: `[C-]#[N+]c1ccc(/C=C/c2ccccc2)cc1`
Output: Non-toxic

Task: Queued: `[C-]#[N+]c1ccccc1/C=C/c1ccc(F)cc1`
Output: Non-toxic

----------
Tested on: J774
Test: Cytotoxicity against mouse J774 cells assessed as reduction in cell viability at 64 uM incubated for 2 hrs by MTS assay
Assay type: cell-based
Conditions: j774, 2 h
experimental readout: Activity

As a guide, the following entries are already answered.
[C-]#[N+]c1ccccc1/C=C/c1ccccn1    Non-toxic
[C-]#[N+]c1ccccc1/C=C(\CC)c1ccccc1    Non-toxic
[C-]#[N+]c1ccccc1/C=C/c1ccccc1OC    Non-toxic
[C-]#[N+]c1ccccc1/C=C/c1ccccc1C(F)(F)F    Non-toxic
[C-]#[N+]c1ccccc1/C=C/c1cccc(C(F)(F)F)c1    Non-toxic
[C-]#[N+]c1ccccc1/C=C/c1ccccc1F    Non-toxic

Task: Reported Activity, compound `[C-]#[N+]c1ccccc1/C=C/c1ccc(C)cc1` : ____
Output: Non-toxic

----------
Would you mind telling me the reported MIC of each entry?
Tested on: Staphylococcus aureus
Assay: Antimicrobial activity against methicillin-resistant Staphylococcus aureus USA100 assessed as reduction in bacterial growth incubated for 18 to 20 hrs at 37 degC by broth microdilution method
Format: functional
Give the value, in units of µM, as a plain number.

Task: Look up MIC with Staphylococcus aureus for this compound: `[C-]#[N+]c1ccc(/C=C/c2ccccc2)cc1`
Output: 4

Task: Queued: `[C-]#[N+]c1ccccc1CCc1ccccc1`
Output: 4

Task: Queued: `[C-]#[N+]c1ccccc1-c1ccc2ccccc2c1`
Output: 16

Task: Queued: `[C-]#[N+]c1ccccc1/C=C(\C)c1ccccc1`
Output: 8

Task: Queued: `[C-]#[N+]c1ccccc1/C=C/c1ccncc1`
Output: 32

Task: Queued: `[C-]#[N+]c1cccc(/C=C/c2ccncc2)c1`
Output: 32

----------
Would you mind telling me the reported MIC of each entry?
Tested on: Staphylococcus aureus
Assay: Antimicrobial activity against methicillin-resistant Staphylococcus aureus USA500 assessed as reduction in bacterial growth incubated for 18 to 20 hrs at 37 degC by broth microdilution method
Assay type: functional
Give the value, in units of µM, as a plain number.

Task: Reported MIC, molecule `[C-]#[N+]c1ccccc1/C=C/c1ccc(C)cc1` : ____
Output: 32

Task: Queued: `[C-]#[N+]c1ccccc1/C=C/c1cccnc1`
Output: 32

Task: Queued: `[C-]#[N+]c1ccccc1/C=C/c1ccc(F)cc1`
Output: 16

Task: Queued: `[C-]#[N+]c1ccccc1/C=C(\CC)c1ccccc1`
Output: 32

----------
Would you mind telling me the reported MIC of each entry?
Tested on: Staphylococcus aureus
Test: Antimicrobial activity against methicillin-resistant Staphylococcus aureus USA300 assessed as reduction in bacterial growth incubated for 18 to 20 hrs at 37 degC by broth microdilution method
Format: functional
Give the value, in units of µM, as a plain number.

Task: Reported MIC, compound CC(=O)NC[C@H]1CN(c2ccc(N3CCOCC3)c(F)c2)C(=O)O1 [LINEZOLID] : ____
Output: 2

Task: Queued: `[C-]#[N+]c1ccccc1/C=C(\CC)c1ccc(OC)cc1`
Output: 16

Task: Queued: `[C-]#[N+]c1ccccc1/C=C/c1ccccc1F`
Output: 16

Task: Queued: `[C-]#[N+]c1cccc(/C=C/c2ccncc2)c1`
Output: 32

----------
Tested on: J774
Format: cell-based
Details: mouse, j774, 2 h, 128 µM
experimental readout: Activity

As a guide, the following entries are already answered.
[C-]#[N+]c1ccccc1/C=C/c1cccc(OC)c1    Non-toxic
[C-]#[N+]c1ccccc1/C=C/c1ccc(C(F)(F)F)cc1    Toxic
[C-]#[N+]c1ccccc1/C=C/c1ccc([N+](=O)[O-])cc1    Toxic
[C-]#[N+]c1ccccc1/C=C/c1ccc(C)cc1    Toxic
[C-]#[N+]c1ccccc1/C=C(\CC)c1cccc(C(F)(F)F)c1    Toxic

Task: Reported Activity, molecule `[C-]#[N+]c1ccccc1-c1ccc2ccccc2c1` : ____
Output: Toxic

Task: Queued: `[C-]#[N+]c1ccccc1/C=C/c1ccccn1`
Output: Toxic

Task: Queued: `[C-]#[N+]c1cccc(/C=C/c2ccccc2)c1`
Output: Toxic

Task: Queued: `[C-]#[N+]c1ccccc1/C=C/c1cccc(F)c1`
Output: Toxic

Task: Queued: `[C-]#[N+]c1ccccc1/C=C/c1ccccc1F`
Output: Toxic

Task: Queued: `[C-]#[N+]c1ccc(/C=C/c2ccccc2)cc1`
Output: Non-toxic

Task: Queued: `[C-]#[N+]c1ccccc1/C=C/c1ccc(F)cc1`
Output: Toxic

Task: Queued: `[C-]#[N+]c1ccccc1/C=C(\CC)c1ccc(OC)cc1`
Output: Toxic

Task: Queued: `[C-]#[N+]c1ccccc1/C=C/c1ccccc1C(F)(F)F`
Output: Toxic

Task: Queued: `[C-]#[N+]c1ccc(/C=C/c2cccnc2)cc1`
Output: Toxic

Task: Queued: `[C-]#[N+]c1ccccc1/C=C(\CC)c1ccccc1`
Output: Non-toxic

----------
Test system: Staphylococcus aureus
Assay: Antimicrobial activity against methicillin-resistant Staphylococcus aureus USA300 assessed as reduction in bacterial growth incubated for 18 to 20 hrs at 37 degC by broth microdilution method
Assay type: functional
experimental readout: MIC (µM)
Give the value, in units of µM, as a plain number.

Task: Reported MIC, compound `[C-]#[N+]c1ccccc1C=C(c1ccccc1)c1ccccc1` : ____
Output: 16

Task: Queued: `[C-]#[N+]c1ccccc1/C=C/c1ccc(OC)cc1`
Output: 16

----------
Would you mind telling me the reported MIC of each entry?
Test system: Staphylococcus aureus
Experiment: Antimicrobial activity against methicillin-resistant Staphylococcus aureus USA500 assessed as reduction in bacterial growth incubated for 18 to 20 hrs at 37 degC by broth microdilution method
Format: functional
Give the value, in units of µM, as a plain number.

Task: Reported MIC, molecule `[C-]#[N+]c1ccccc1/C=C/c1ccc(C(F)(F)F)cc1` : ____
Output: 16

Task: Queued: `[C-]#[N+]c1ccccc1C=C(c1ccccc1)c1ccccc1`
Output: 8

Task: Queued: `[C-]#[N+]c1ccc(/C=C/c2ccccc2)cc1`
Output: 16

Task: Queued: `[C-]#[N+]c1ccccc1CCc1ccccc1`
Output: 128

Task: Queued: `CN[C@H](CC(C)C)C(=O)N[C@H]1C(=O)N[C@@H](CC(N)=O)C(=O)N[C@H]2C(=O)N[C@H]3C(=O)N[C@H](C(=O)N[C@H](C(=O)O)c4cc(O)cc(O)c4-c4cc3ccc4O)[C@H](O)c3ccc(c(Cl)c3)Oc3cc2cc(c3O[C@@H]2O[C@H](CO)[C@@H](O)[C@H](O)[C@H]2O[C@H]2C[C@](C)(N)[C@H](O)[C@H](C)O2)Oc2ccc(cc2Cl)[C@H]1O`
Output: 4

Task: Queued: `[C-]#[N+]c1ccccc1/C=C(\CCCC)c1ccccc1`
Output: 32

Task: Queued: `[C-]#[N+]c1ccccc1/C=C/c1ccccc1`
Output: 32

----------
Test system: Staphylococcus aureus
Test: Antimicrobial activity against methicillin-resistant Staphylococcus aureus USA100 assessed as reduction in bacterial growth incubated for 18 to 20 hrs at 37 degC by broth microdilution method
Format: functional
experimental readout: MIC (µM)
Give the value, in units of µM, as a plain number.

Task: Reported MIC, compound `[C-]#[N+]c1ccccc1/C=C/c1ccccc1F` : ____
Output: 8

Task: Queued: `[C-]#[N+]c1ccccc1/C=C/c1ccc(OC)cc1`
Output: 8

Task: Queued: `[C-]#[N+]c1ccccc1/C=C(\CCC)c1ccccc1`
Output: 16

Task: Queued: `[C-]#[N+]c1ccc(/C=C/c2ccccn2)cc1`
Output: 128

Task: Queued: `[C-]#[N+]c1ccccc1/C=C(\CCCC)c1ccccc1`
Output: 32

Task: Queued: `[C-]#[N+]c1ccccc1/C=C/c1ccc(C)cc1`
Output: 4
